- Tested on: Fam108B (ABHD17B) serine hydrolase [Mus musculus]
- procedure-details: mouse Fam108B serine hydrolase inhibitors, primary screen, counter-screen for RBBP9 inhibitor project, biochemical, fluorescence polarization (AID 1947);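 note: inhibitors lower polarization as less probe binds the enzyme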
- condition-parameters: recombinant Fam108B, FP-Rh probe fluorescence polarization; at 9.51 µM
Among all 300,000 compounds or so, about 990 (0.33%) were called active.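 Rule for the calls: active = inhibition above the screen mean inhibition plus 3 SD, computed separately per campaign (cut at about 18% in these data); inactive = the rest.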 This is one part of a sample in which actives are shown more often than they occur.
Response enum: t = active, f = inactive

For orientation, consider the following solved cases.
COc1ccc(OC)c(Nc2nc(-c3ccc(O)c(O)c3)cs2)c1: t
CCC1(c2ccccc2)NC(=O)N(CC(=O)c2ccc3c(c2)OCO3)C1=O (stereo not given): f
COc1ccc(-c2csc(NC(=O)COC(=O)Cc3ccc(Cl)cc3Cl)n2)cc1: t
COCCN1CCn2c(nc3cc(NS(C)(=O)=O)ccc32)C1: f

Continue with the next compound.
Q: Could you please tell me the result logged for COc1ccc(NC(=O)CCCN2C(=O)C(c3ccccc3)Oc3cccnc32)cc1 (stereo not given) in this assay?
Result: f

All values here come from PubChem BioAssay AID1947.
